B1: tRNA (parent)
chain: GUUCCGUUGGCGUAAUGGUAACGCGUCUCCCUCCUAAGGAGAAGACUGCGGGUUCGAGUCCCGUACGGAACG

variants of: B1; assay: yeast fitness relative to wild type (ratio to wild type); higher = fitter; tRNA-Arg(CCU), competitive growth, 37 C, YPD
This sample holds only a part of the variants without activity.
Cut-off 0.7 on yeast fitness, inclusive. At or above means TRUE; below means FALSE.

Illustrative cases are given below, each with its answer.
# Variant id, Answer label
rows = [
    ("A21C C27U C61G", "FALSE"),
    ("A14G U35A A42U C46G G56A A70C", "FALSE"),
    ("A21C C29U C31G A43U", "FALSE"),
    ("A21U A36C C60G A65C", "FALSE"),
    ("C11G A45U", "FALSE"),
    ("C4U C30A A43G", "TRUE"),
]

Now turn to the next variant.
Form field: yeast fitness at least 0.7? Entry: U7G U64A TRUE
